Kindly state viscosity for each of the entries shown.
- measurement-setup: 313.15 K; 101.33 kPa
Just the number please, in mPa·s, no unit attached.

Exercise: Returns the measured viscosity for the input molecule. Input: CCCCNCCO
Key: 8.07

Exercise: Which viscosity value is on record for O=C(OCc1ccccc1)c1ccccc1 ?
Key: 5.04

Exercise: Return reported viscosity; argument: CCNCCO
Key: 6.748

Exercise: viscosity lookup needed for CNC=O , thanks.
Key: 1.352

Exercise: Request the reported viscosity associated with c1ccc2c(c1)CCCC2
Key: 1.473

* * *

- measurement-setup: 323.15 K; 101.33 kPa
endpoint-name: viscosity (mPa·s)
Give the number; mPa·s is assumed, so skip it.

Exercise: # input molecule: CCNCCO ; wanted: its viscosity
Key: 4.714

Exercise: viscosity for COC(=O)c1ccccc1 ?
Key: 1.016

Exercise: Please give the measured viscosity for this molecule: CCCCOCCO
Key: 1.588

Exercise: Which viscosity value belongs to CNC=O ?
Key: 1.167

Exercise: Need viscosity of CCCCNCCO , thanks.
Key: 5.591

The measured values listed here are drawn from the CheMixHub viscosity set.
